B1: ZBTB22 (parent)
chain: FSSSSQEAFAASAVGSGERRGGGP

Variants of: B1
Assay: protein stability index of a GFP-peptide fusion (GPS, HEK-293T) (PSI 1-6); higher = more stable;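 note: lentivirally expressed fusions sorted by FACS into six bins by GFP to DsRed ratio, PSI derived from sequencing read proportions per bin multiplied by bin number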
Conditions: c terminus: a fixed tail appended
Could you please report measured protein stability index for the items listed next?
Numbers only.

{"SEQ_TEXT": "FSSSSQEAFAASAVGSGERRDGGP [G21D]", "PARAMETER_MEASURED": "protein stability index", "MEAS_VALUE": 4.06}
{"SEQ_TEXT": "FSSSSQEAFAASAVGSGERQGGGP [R20Q]", "PARAMETER_MEASURED": "protein stability index", "MEAS_VALUE": 3.71}
{"SEQ_TEXT": "FSSSSQEAFAASAVGSGERRGWGP [G22W]", "PARAMETER_MEASURED": "protein stability index", "MEAS_VALUE": 2.19}

Parameters: items (list). Returns: protein stability index for each item.
1. PSSSSQEAFAASAVGSGERRGGGP [F1P]
2. FSSSSYEAFAASAVGSGERRGGGP [Q6Y]

Resp:
1. 5.33
2. 2.13

Value source: the supplement of paper PMC10567573
